- ASSAY TARGET: LXRβ ligand-binding domain (Homo sapiens, UniProt P55055, DUP175-175)
- Construct: amino acids 156-461; NP009052; made in house; host or cells: E. coli
- Sequence (P55055 with tags, fused parts or gaps DUP175-175 limits assumed): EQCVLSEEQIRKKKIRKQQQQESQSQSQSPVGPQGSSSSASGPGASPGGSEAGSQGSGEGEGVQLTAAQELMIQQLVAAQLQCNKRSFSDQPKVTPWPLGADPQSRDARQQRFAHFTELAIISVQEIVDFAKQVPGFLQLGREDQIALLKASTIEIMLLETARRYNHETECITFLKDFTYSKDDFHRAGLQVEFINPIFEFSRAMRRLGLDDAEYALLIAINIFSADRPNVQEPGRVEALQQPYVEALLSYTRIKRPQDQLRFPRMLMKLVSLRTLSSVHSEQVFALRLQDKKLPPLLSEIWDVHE
- ASSAY NAME: TR-FRETβ activity assay (NCoA3 coactivator peptide recruitment)
- Format: biochemical
- TEST PARAMETERS: TR-FRET, 1 μM 24(S)-25-epoxycholesterol prestimulation; read-out: FRETβ (EC50 range)
MEASURED METRIC: EC50

[[record]]
molecule = "Cc1ccc(S(=O)(=O)n2c(-c3cccc(N4CC(C(=O)O)C4)c3)c(-c3sccc3C#N)c3cc(F)ccc32)cc1 [3/25]"
measured_metric = "EC50"
observed = "1 to 10 µM"

[[record]]
molecule = "COc1c(C(=O)O)ccc(-c2cccc(-c3c(-c4ccsc4C#N)c4cc(F)ccc4n3S(=O)(=O)c3ccc(C)cc3)c2)c1Cl [12/5]"
measured_metric = "EC50"
observed = "< 0.1 µM"

[[record]]
molecule = "COc1cc(-c2c(-c3cccc(-c4ccc(C(=O)O)cc4Cl)c3)n(S(=O)(=O)c3ccc(C(F)F)cc3)c3ccc(F)cc23)c2c(C#N)cnn2c1 [11/46]"
measured_metric = "EC50"
observed = "< 0.1 µM"

[[record]]
molecule = "CCc1ccc(S(=O)(=O)n2c(-c3cccc(N4CC(C(=O)O)C4)c3)c(-c3ccsc3C#N)c3cc(F)ccc32)cc1 [3/10]"
measured_metric = "EC50"
observed = "0.1 to 1 µM"

[[record]]
molecule = "COc1ccc2c(-c3ccsc3C#N)c(-c3cccs3)n(S(=O)(=O)c3ccc(Cl)cc3)c2c1 [1/40]"
measured_metric = "EC50"
observed = "1 to 10 µM"

[[record]]
molecule = "Cc1ccc(S(=O)(=O)n2c(-c3cccc(-c4ccc(C(=O)O)cc4Cl)c3)c(-c3cccc(F)c3C#N)c3cc(F)ccc32)cc1 [11/1]"
measured_metric = "EC50"
observed = "< 0.1 µM"

[[record]]
molecule = "Cc1ccc(S(=O)(=O)n2c(-c3cccc(N4[C@@H]5CC[C@H]4C[C@@H](C(=O)O)C5)c3)c(-c3ccsc3C#N)c3cc(F)ccc32)cc1 [3/58]"
measured_metric = "EC50"
observed = "1 to 10 µM"


* * *

EC50: recorded values
- ASSAY TARGET: LXRβ ligand-binding domain (Homo sapiens, UniProt P55055, DUP175-175)
- Construct: amino acids 156-461; NP009052; made in house; host or cells: E. coli
- Sequence (P55055 with tags, fused parts or gaps DUP175-175 limits assumed): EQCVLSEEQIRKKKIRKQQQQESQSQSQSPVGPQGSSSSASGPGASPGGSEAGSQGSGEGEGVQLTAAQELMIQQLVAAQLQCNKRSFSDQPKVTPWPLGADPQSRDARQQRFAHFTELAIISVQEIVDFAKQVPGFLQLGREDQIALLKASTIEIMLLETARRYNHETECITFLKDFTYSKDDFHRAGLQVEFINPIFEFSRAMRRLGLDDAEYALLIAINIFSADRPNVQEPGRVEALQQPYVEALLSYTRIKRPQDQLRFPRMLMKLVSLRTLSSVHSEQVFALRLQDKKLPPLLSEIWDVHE
- ASSAY NAME: TR-FRETβ activity assay (NCoA3 coactivator peptide recruitment)
- Format: biochemical
- TEST PARAMETERS: TR-FRET, 1 μM 24(S)-25-epoxycholesterol prestimulation; read-out: FRETβ (EC50 range)
- Description: The tested compounds were usually dissolved, tested and stored as 20 mM stock solutions in DMSO. Since sulfonyl acetic acid derivatives tend to decarboxylate under these conditions, these stock solutions were prepared, tested and stored as 20 mM DMSO stock solutions containing 100 mM trifluoroacetic Acid (5 equivalents). Sulfonyl acetic acid derivatives are shelf stable as solid at rt for long time as reported by Griesbrecht et al. (Synlett 2010:374) or Faucher et al. (J. Med. Chem. 2004; 47:18). […]
MEASURED METRIC: EC50

[[record]]
chemical_structure = "N#Cc1sccc1-c1c(-c2cccs2)n(S(=O)(=O)c2ccc(Cl)cc2)c2ccc(OCCCCC(=O)O)cc12"
measured_metric = "EC50"
observed = "> 10 µM"

[[record]]
chemical_structure = "N#Cc1sccc1-c1c(-c2cccc(N3CCC(C(=O)O)CC3)c2)n(S(=O)(=O)c2ccc(C(F)F)cc2)c2ccc(F)cc12"
measured_metric = "EC50"
observed = "0.1 to 1 µM"

[[record]]
chemical_structure = "O=C(O)c1ccc(-c2cccc(-c3c(-c4cccc5nonc45)c4cc(F)ccc4n3S(=O)(=O)c3ccc(C(F)F)cc3)c2)c(Cl)c1"
measured_metric = "EC50"
observed = "< 0.1 µM"

[[record]]
chemical_structure = "N#Cc1cccc(C#N)c1-c1c(-c2cccc(N3CC(C(=O)O)C3)c2)n(S(=O)(=O)c2ccc(C(F)F)cc2)c2ccc(F)cc12"
measured_metric = "EC50"
observed = "0.1 to 1 µM"


* * *

- ASSAY TARGET: LXRβ ligand-binding domain (Homo sapiens, UniProt P55055, DUP175-175)
- Construct: amino acids 156-461; NP009052; made in house; host or cells: E. coli
- ASSAY NAME: TR-FRETβ activity assay (NCoA3 coactivator peptide recruitment)
- Assay type: biochemical
- TEST PARAMETERS: TR-FRET, 1 μM 24(S)-25-epoxycholesterol prestimulation; read-out: FRETβ (EC50 range)
MEASURED METRIC: EC50

[[record]]
molecule = "N#Cc1sccc1-c1c(-c2cccc(N3CC(C(=O)O)C3)c2)n(S(=O)(=O)c2ccc(C(F)(F)F)cc2)c2ccc(F)cc12"
observed = "100 to 1000 nM"

[[record]]
molecule = "N#CC1=C(c2c(-c3cccc(-c4ccc(C(=O)O)cc4Cl)c3)n(S(=O)(=O)c3ccc(C(F)F)cc3)c3ccc(F)cc23)CCCC1"
observed = "> 10000 nM"

[[record]]
molecule = "Cc1ccc(S(=O)(=O)n2c(-c3cccc(N4CC(C(=O)O)C4)c3)c(-c3ccsc3C(=O)N(C)C)c3cc(F)ccc32)cc1"
observed = "> 10000 nM"

[[record]]
molecule = "Cc1ccc(S(=O)(=O)n2c(-c3cccc(-c4ccc(C(=O)NO)cc4)c3)c(-c3ccsc3C#N)c3cc(F)ccc32)cc1"
observed = "100 to 1000 nM"

[[record]]
molecule = "Cc1ccc(S(=O)(=O)n2c(-c3cccc(-c4ccc(C(=O)O)cc4Cl)c3)c(-c3ccsc3C#N)c3cc(F)ccc32)cc1F"
observed = "100 to 1000 nM"

[[record]]
molecule = "COc1ccc(S(=O)(=O)n2c(-c3cccc(N4CC(C(=O)O)C4)c3)c(-c3ccsc3C#N)c3cc(F)ccc32)cn1"
observed = "100 to 1000 nM"

[[record]]
molecule = "N#Cc1sccc1-c1c(-c2cccc(OCCC(=O)O)n2)n(S(=O)(=O)c2ccc(Cl)cc2)c2ccccc12"
observed = "1000 to 10000 nM"

[[record]]
molecule = "N#Cc1sccc1-c1c(-c2cccs2)n(S(=O)(=O)c2ccc(Cl)cc2)c2cc(O)ccc12"
observed = "1000 to 10000 nM"

[[record]]
molecule = "N#Cc1sccc1-c1c(-c2cccc(C3CC3C(=O)O)c2)n(S(=O)(=O)C2CC2)c2ccccc12 (stereo not drawn)"
observed = "1000 to 10000 nM"

[[record]]
molecule = "Cc1ccc(S(=O)(=O)n2c(-c3cccc(-c4cccc(S(C)(=O)=Nc5nnn[nH]5)c4)c3)c(-c3ccsc3C#N)c3cc(F)ccc32)cc1 (stereo not drawn)"
observed = "100 to 1000 nM"

[[record]]
molecule = "O=C(O)c1ccc(-c2cccc(-c3c(-c4ccccc4C4COC4)c4cc(F)ccc4n3S(=O)(=O)c3ccc(Cl)cc3)c2)c(Cl)c1"
observed = "< 100 nM"

[[record]]
molecule = "Cc1ccc(S(=O)(=O)n2c(-c3cccc(-c4ccc(C(=O)O)c(Cl)c4)c3)c(-c3ccsc3C#N)c3cc(F)ccc32)cc1"
observed = "100 to 1000 nM"

[[record]]
molecule = "Cc1ccc(S(=O)(=O)n2c(-c3cccc(C45CC(C(=O)O)(C4)C5)c3)c(-c3ccsc3C#N)c3ccccc32)cc1"
observed = "100 to 1000 nM"

[[record]]
molecule = "Cc1ccc(S(=O)(=O)n2c(-c3cccc(-c4ccc(C(C)(C)N)cc4Cl)c3)c(-c3ccsc3C#N)c3cc(F)ccc32)cc1"
observed = "100 to 1000 nM"

[[record]]
molecule = "N#Cc1sccc1-c1c(-c2cccc(C3CC3C(=O)NO)c2)n(S(=O)(=O)c2ccc(Cl)cc2)c2ccccc12 (stereo not drawn)"
observed = "100 to 1000 nM"

[[record]]
molecule = "N#Cc1cccc(C#N)c1-c1c(-c2cccc(-c3ccc(C(=O)O)cc3Cl)c2)n(S(=O)(=O)c2ccc(C(F)F)cc2)c2cnc(O)cc12"
observed = "100 to 1000 nM"

[[record]]
molecule = "Cc1ccc(S(=O)(=O)n2c(-c3cccc(N4CC(C(=O)O)C4)c3)c(-c3ccsc3C#N)c3cc(C#N)ccc32)cc1"
observed = "1000 to 10000 nM"

[[record]]
molecule = "CC1(C)CCN(S(=O)(=O)n2c(-c3cccc(-c4ccc(C(=O)O)cc4)c3)c(-c3ccsc3C#N)c3ccccc32)CC1"
observed = "1000 to 10000 nM"

[[record]]
molecule = "O=C(O)c1ccc(-c2cccc(-c3c(-c4ccsc4C4COC4)c4cc(F)ccc4n3S(=O)(=O)c3ccc(C(F)F)cc3)c2)c(Cl)c1"
observed = "< 100 nM"

[[record]]
molecule = "N#Cc1cccc(C#N)c1-c1c(-c2cccc(C34CCC(C(=O)O)(CC3)CC4)c2)n(S(=O)(=O)c2ccc(C(F)F)cc2)c2ccc(F)cc12"
observed = "< 100 nM"

[[record]]
molecule = "O=C(NCCS(=O)(=O)O)C1CC1c1cccc(-c2c(-c3c(Cl)cccc3Cl)c3cc(F)ccc3n2S(=O)(=O)c2ccc(C(F)F)cc2)c1 (stereo not drawn)"
observed = "< 100 nM"

[[record]]
molecule = "Cc1ccc(S(=O)(=O)n2c(-c3cccc(-c4ccc(C(=O)O)cc4Cl)c3)c(-c3ccccc3C#N)c3cc(F)ccc32)cc1"
observed = "< 100 nM"

[[record]]
molecule = "N#Cc1sccc1-c1c(-c2cccs2)n(S(=O)(=O)c2cccc3ccccc23)c2ccccc12"
observed = "1000 to 10000 nM"

[[record]]
molecule = "Cc1ccc(S(=O)(=O)n2c(-c3cccc(C4CC5(CC(C(=O)O)C5)C4)c3)c(-c3ccsc3C#N)c3cc(F)ccc32)cc1 (stereo not drawn)"
observed = "100 to 1000 nM"

[[record]]
molecule = "Cc1ccc(S(=O)(=O)n2c(-c3cccc(-c4ccc(C(=O)O)cc4Cl)c3)c(-c3ccsc3C#N)c3cc(F)ccc32)cc1"
observed = "100 to 1000 nM"

[[record]]
molecule = "Cc1ccc(S(=O)(=O)n2c(-c3cccc(N4CC(C(=O)O)C4)c3)c(-c3ccsc3C#N)c3cc(Cl)ccc32)cc1"
observed = "1000 to 10000 nM"

[[record]]
molecule = "N#Cc1sccc1-c1c(-c2cccc(-c3ccc(C(=O)O)cc3Cl)c2)n(S(=O)(=O)c2ccc(C(F)F)cc2)c2ccc(F)cc12"
observed = "< 100 nM"

